B1: Twister Ribozyme (parent)
chain: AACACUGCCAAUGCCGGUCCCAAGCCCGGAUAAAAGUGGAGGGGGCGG

# Variants of: B1
# experiment: self-cleavage, relative activity (ratio to wild type); higher = more cleavage; co-transcriptional
test_readout: self-cleavage
Enter the number alone.

sequence_content: ACCACUGCCAAUGCUGGUCCCAAGCCCGGAUAAAAGUGGAGGGGGCGG [A2C C15U]
self-cleavage: 0.088
--
sequence_content: AACACUGCCAAUGCCGGUCCCAAGCCCGGAUAAAAGUGGAGGGGGGGU [C46G G48U]
self-cleavage: 1.52
--
sequence_content: AACAUUGCCAAUGCCGGUCCCAAGCCCGCAUAAAAGUGGAGGGGGCGG [C5U G29C]
self-cleavage: 0.454
--
sequence_content: AACACGGCCAAUGCCGGUCCCAGGCCCGGAUAAAAGUGGAGGGGGCGG [U6G A23G]
self-cleavage: 0.0873
--
sequence_content: AACAUUGCCAACGCCGGUCCCAAGCCCGGAUAAAAGUGGAGGGGGCGG [C5U U12C]
self-cleavage: 0.769
--
sequence_content: AACACUGCCAAUGCCGGUCCUAAGCCCGGAUAAAAGUGGAGGGGGCGC [C21U G48C]
self-cleavage: 0.133
--
sequence_content: AACACUGACAAUGACGGUCCCAAGCCCGGAUAAAAGUGGAGGGGGCGG [C8A C14A]
self-cleavage: 0.529
--
sequence_content: AACACUGCCAAUGCCGGUCCCAAACCCGGUUAAAAGUGGAGGGGGCGG [G24A A30U]
self-cleavage: 0.0686

Query: For the variant shown here, AACACUGCCCAUGCCGGUCCCAAGCCCGGAUAACAGUGGAGGGGGCGG [A10C A34C] , give the reported self-cleavage.
Result: 0.283

Query: I'd like to know its self-cleavage. The variant in question is AACACUGCUAAUGCCGGUCCCAAGCCCGGAUUAAAGUGGAGGGGGCGG [C9U A32U]
Result: 0.585

Query: Tell me the measured self-cleavage of AACACUGCCAAUGCCGUUCCCAAGCCCGGAUAAAUGUGGAGGGGGCGG [G17U A35U] , please.
Result: 0.372

Query: self-cleavage lookup needed for AACACUGCCAAUGCCGAUCCCAAGCCCGAAUAAAAGUGGAGGGGGCGG [G17A G29A] , thanks.
Result: 0.308
